- TARGET_OR_TEST_SYSTEM: Adenosine receptor A1 (Homo sapiens)
- ASSAY_PROTOCOL: Allosteric modulation at human adenosine A1 receptor expressed in CHO FlpIn cells assessed as increase in ERK1/2 phosphorylation at 3 to 10 uM relative to control
- Format: cell-based
Active and inactive are the calls of the source. The calls are words filed in the database; no cut-off is given here.
Respond using exactly one of the listed classes: Yes for active, No for inactive

Nc1sc2c(c1C(=O)c1ccc(Cl)cc1)CCCCCC2 :: Yes
Nc1sc2c(c1C(=O)NCc1cccc(Cl)c1)CCCCCC2 :: No

Please share the test call associated with `Nc1sc2c(c1C(=O)NNc1ccccc1)CCCCCC2` .
No

What do you have for `NNC(=O)c1c(N)sc2c1CCCCCC2` ?
No
